Molecular target: Pdr3 (UniProt P33200)
Sequence: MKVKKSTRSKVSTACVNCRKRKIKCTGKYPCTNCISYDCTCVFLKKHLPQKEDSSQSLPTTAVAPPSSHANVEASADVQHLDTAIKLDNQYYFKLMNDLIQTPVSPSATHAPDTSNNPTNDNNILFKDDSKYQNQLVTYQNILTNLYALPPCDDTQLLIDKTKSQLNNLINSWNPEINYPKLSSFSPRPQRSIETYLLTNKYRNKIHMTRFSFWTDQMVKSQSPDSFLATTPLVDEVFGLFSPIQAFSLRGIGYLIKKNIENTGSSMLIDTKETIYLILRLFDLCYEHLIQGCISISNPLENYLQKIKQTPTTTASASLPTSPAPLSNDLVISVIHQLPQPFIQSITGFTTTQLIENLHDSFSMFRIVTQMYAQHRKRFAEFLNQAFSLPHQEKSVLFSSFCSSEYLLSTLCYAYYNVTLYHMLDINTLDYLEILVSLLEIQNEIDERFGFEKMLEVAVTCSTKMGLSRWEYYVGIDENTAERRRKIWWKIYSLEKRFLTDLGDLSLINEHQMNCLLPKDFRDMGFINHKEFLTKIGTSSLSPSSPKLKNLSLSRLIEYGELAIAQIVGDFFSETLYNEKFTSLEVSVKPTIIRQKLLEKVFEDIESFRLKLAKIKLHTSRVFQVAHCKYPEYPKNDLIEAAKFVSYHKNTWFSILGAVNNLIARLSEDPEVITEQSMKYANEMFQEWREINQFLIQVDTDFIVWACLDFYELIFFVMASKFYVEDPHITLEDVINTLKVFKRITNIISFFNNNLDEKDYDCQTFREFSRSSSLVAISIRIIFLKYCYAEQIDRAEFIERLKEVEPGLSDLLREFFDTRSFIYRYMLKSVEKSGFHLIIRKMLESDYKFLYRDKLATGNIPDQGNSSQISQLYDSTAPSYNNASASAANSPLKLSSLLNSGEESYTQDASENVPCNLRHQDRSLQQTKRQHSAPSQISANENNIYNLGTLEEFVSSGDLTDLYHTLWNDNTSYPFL
Test: PBM E-score (8-mer binding enrichment) (E-score (-0.5 to 0.5)); higher = stronger / more preferred TF binding
Conditions: protein concentration: 200 nM; construct: GST-full length
In all, about 33,000 sequences were measured (“E-score (-0.5 to 0.5)”: median about -0.035, highest 2% from about 0.35 on). This excerpt belongs to a sample that is enriched for the highest values.
Measured Quantity: PBM E-score
# print the numeric value only

Field: example entries. Status: answers known.
ATCCAAAA; -0.00928
AGTATGCC; -0.0201
TCCCGGGA; 0.485
AAGGCATC; -0.216

# input Would you mind telling me what PBM E-score value was observed for "GCCGGGAA" ?
# output 0.304

# input Value lookup for PBM E-score; key = "CACTCATG"
# output -0.257

# input Any idea what its PBM E-score is? The sequence is "CCCGGGGC"
# output 0.338

# input Need PBM E-score of "CCGGGGAA" , thanks.
# output 0.356

# input Requested read-out: PBM E-score. Entry: "CCGGGGAG"
# output 0.332

# input Endpoint output: PBM E-score of "CAGGCACA" . Value?
# output -0.171

# input Name the recorded PBM E-score for "CCCGGGAA" .
# output 0.443

# input For "CCCGGGAG" , what is its reported PBM E-score?
# output 0.397

# input So what's the measured PBM E-score for this one? "CCCGGGAC"
# output 0.451

# input Any idea what PBM E-score was measured for "CTCAAAAA" ?
# output -0.0515

# input I am curious: what PBM E-score value has been reported for "TACCGGGA" ?
# output 0.347

# input Requested read-out: PBM E-score. Entry: "TCCCGGCA"
# output 0.323

# input Requested read-out: PBM E-score. Entry: "CCCCGGTA"
# output 0.122

# input Could you tell me which PBM E-score is on file for "CTCGTAGC" ?
# output -0.167

# input // lookup PBM E-score for "CGTAACAC"
# output -0.0629

# input Consider the sequence shown here: "CGGGGGAA" What is its recorded PBM E-score?
# output 0.276

# input Param item = "GTGCGACA" ; retrieve measured PBM E-score.
# output -0.0394

# input Would you mind telling me what PBM E-score value was observed for "CACGGGAG" ?
# output 0.0682

###

Molecular target: Pdr3 (UniProt P33200)
Sequence: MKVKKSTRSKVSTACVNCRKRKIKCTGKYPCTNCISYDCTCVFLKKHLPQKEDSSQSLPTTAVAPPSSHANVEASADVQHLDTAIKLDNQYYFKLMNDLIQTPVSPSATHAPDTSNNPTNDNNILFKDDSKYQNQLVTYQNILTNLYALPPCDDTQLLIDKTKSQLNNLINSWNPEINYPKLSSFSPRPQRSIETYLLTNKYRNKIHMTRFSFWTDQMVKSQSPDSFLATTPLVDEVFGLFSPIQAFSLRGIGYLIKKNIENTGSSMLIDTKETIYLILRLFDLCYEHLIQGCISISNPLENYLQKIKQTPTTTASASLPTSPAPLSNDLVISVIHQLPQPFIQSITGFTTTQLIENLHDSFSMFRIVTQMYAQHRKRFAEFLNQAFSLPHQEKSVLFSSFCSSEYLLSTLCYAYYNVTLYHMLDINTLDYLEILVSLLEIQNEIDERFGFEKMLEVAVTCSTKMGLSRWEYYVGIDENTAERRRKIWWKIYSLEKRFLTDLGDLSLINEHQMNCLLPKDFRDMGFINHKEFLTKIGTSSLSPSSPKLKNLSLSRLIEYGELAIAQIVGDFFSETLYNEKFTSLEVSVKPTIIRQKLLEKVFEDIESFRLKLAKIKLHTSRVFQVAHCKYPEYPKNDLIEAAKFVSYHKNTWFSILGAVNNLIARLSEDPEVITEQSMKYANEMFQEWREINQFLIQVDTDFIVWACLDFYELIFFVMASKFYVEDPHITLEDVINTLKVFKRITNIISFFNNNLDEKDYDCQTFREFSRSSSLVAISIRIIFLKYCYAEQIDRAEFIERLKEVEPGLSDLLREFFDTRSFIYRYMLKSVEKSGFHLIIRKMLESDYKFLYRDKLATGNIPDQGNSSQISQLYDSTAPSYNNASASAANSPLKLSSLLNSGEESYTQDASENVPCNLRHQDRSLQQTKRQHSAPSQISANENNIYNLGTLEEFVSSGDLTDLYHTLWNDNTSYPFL
Test: PBM E-score (8-mer binding enrichment) (E-score (-0.5 to 0.5)); higher = stronger / more preferred TF binding
Conditions: protein concentration: 200 nM; construct: GST-full length
The full ranking holds about 33,000 sequences; the median of “E-score (-0.5 to 0.5)” is about -0.035, and the highest 2% start at about 0.35. Only a selection was taken, and the highest values are over-represented in it overall.
Measured Quantity: PBM E-score
Provide a numeric answer; units are not to be included.

CAGGGACA; 0.0593

# input Which PBM E-score is listed for "CCTCGAAA" ?
# output -0.114

###

Target: Pdr3 (UniProt P33200)
Sequence: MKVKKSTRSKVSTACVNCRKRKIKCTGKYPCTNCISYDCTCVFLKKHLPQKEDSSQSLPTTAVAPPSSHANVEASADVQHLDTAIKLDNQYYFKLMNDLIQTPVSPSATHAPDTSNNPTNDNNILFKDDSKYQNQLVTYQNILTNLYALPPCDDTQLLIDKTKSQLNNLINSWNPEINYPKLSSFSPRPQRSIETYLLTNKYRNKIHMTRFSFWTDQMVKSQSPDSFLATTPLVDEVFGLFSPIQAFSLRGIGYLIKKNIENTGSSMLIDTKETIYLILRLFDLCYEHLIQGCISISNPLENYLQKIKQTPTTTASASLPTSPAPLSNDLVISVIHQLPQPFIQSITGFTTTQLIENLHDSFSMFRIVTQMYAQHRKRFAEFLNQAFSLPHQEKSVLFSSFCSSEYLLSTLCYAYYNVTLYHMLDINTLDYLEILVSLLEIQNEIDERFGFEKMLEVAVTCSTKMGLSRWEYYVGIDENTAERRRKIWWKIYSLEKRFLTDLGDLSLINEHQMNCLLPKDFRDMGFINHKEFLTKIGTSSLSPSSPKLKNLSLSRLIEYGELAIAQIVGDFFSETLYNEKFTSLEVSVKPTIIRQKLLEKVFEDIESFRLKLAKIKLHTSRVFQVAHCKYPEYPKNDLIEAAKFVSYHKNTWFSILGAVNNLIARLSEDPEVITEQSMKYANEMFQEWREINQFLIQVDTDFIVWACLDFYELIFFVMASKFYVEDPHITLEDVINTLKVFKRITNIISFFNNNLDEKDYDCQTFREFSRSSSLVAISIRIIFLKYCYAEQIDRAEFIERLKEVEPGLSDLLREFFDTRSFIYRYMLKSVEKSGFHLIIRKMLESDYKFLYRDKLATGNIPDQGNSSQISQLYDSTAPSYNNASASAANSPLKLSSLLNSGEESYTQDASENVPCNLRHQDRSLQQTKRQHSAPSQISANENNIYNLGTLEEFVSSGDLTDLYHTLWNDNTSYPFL
Test: PBM E-score (8-mer binding enrichment) (E-score (-0.5 to 0.5)); higher = stronger / more preferred TF binding
Details: protein concentration: 200 nM; construct: GST-full length
Whole data set: some 33,000 sequences, median “E-score (-0.5 to 0.5)” near -0.035, cut for the highest 2% near 0.35. Shown is part of a subset that was picked to be rich in the highest values.
Think of 0.3 as a floor: if PBM E-score stands on it or above, it is Y; beneath it, N.

Reference set (6 entries):
TAGCCGCA; N
CGCCGGGA; Y
AGGAAATA; N
GGGTTTGA; N
ATGCAAGC; N
TCGAGAAA; N

# input hey, is PBM E-score for this one >= 0.3? "GCCGGGCA"
# output N

# input Check if PBM E-score >= 0.3 (inclusive). Item: "CCCATTGC"
# output N

# input Does "ACTTTGCA" have a reported PBM E-score of at least 0.3?
# output N

# input Confirm if PBM E-score reported for the sequence "CGGAAATC" is 0.3 or above.
# output Y

# input Determine whether measured PBM E-score meets or exceeds 0.3 for "TAATGCAA"
# output N

# input Check if PBM E-score >= 0.3 (inclusive). Item: "CCCGCGCA"
# output N

# input Threshold query (PBM E-score >= 0.3) on "AGGCACGC"
# output N

# input Test whether the sequence "ACTGGCGG" records PBM E-score of 0.3 or higher.
# output N
